Ref: PubChem BioAssay AID248

Examples of compounds with documented T/C follow.
test system: L1210 leukemia ip in BDF1 mice, survival T/C; assay: NCI In Vivo Anticancer Drug Screen. Data for tumor model L1210 Leukemia (intraperitoneal) in B6D2F1 (BDF1) mice; conditions: endpoint: mean survival time; dose: 200.0 mg/kg/injection; schedule: Q04DX003 (ip); vehicle: Klucel (hydroxypropylcellulose) (HPC); higher = longer survival
Inconclusive results and toxic doses are left out.

| compound | T/C |
| --- | --- |
| CCO/C=C1\SC(=S)N(c2ccc(O)cc2)C1=O | 98 % of control |
| COc1cc(C=Nc2ccccc2C(=O)N/N=C/c2cc(OC)c(OC)c(OC)c2)cc(OC)c1OC | 100 % of control |
| C/C(=N\O)c1ccccc1C | 106 % of control |
| CCCC(C1=CC(C)(C)c2ccccc2C1=O)c1ccc(Br)cc1 (centres undefined) | 113 % of control |

* * *

Test system: L1210 leukemia ip in BDF1 mice, survival T/C
Assay: NCI In Vivo Anticancer Drug Screen. Data for tumor model L1210 Leukemia (intraperitoneal) in B6D2F1 (BDF1) mice
Settings: endpoint: mean survival time; dose: 200.0 mg/kg/injection; schedule: Q01DX009 (ip); vehicle: Klucel (hydroxypropylcellulose) (HPC); higher = longer survival
Experimental: The antitumor activity of compounds was measured in mice bearing transplantable tumors. Survival or tumor size were measured and the results are expressed as the measurement made in the treated group (T) divided by the measurement made in the vehicle treated control group (C). The tumor model used in this assay is L1210 Leukemia (intraperitoneal) in B6D2F1 (BDF1) mice
Inconclusive results and toxic doses are left out.
Examples of molecules with documented T/C follow.
measure-name: T/C

| molecule | measure-name | obs-value |
| --- | --- | --- |
| Cc1ccc(NC(=O)N(Cc2ccccc2)Cc2ccccc2)c([N+](=O)[O-])c1 | T/C | 90 % of control |
| N#CCC(=O)Nc1ccccc1 | T/C | 103 % of control |
| Cc1ccc(S(=O)(=O)OCC2C(c3ccccc3)CCC(c3ccccc3)C2COS(=O)(=O)c2ccc(C)cc2)cc1 (stereo not drawn) | T/C | 94 % of control |
| CCCCC/C=C/c1c(C)[nH]c2ccccc2c1=O | T/C | 94 % of control |
| CCCC(=O)Nc1cc([N+](=O)[O-])ccc1OC | T/C | 104 % of control |
| Cc1cc[n+]([O-])cc1C | T/C | 96 % of control |
| Cc1cccc(NC(=S)NCc2ccco2)c1 | T/C | 93 % of control |
| NC(=O)COc1ccc(Cl)cc1Cl | T/C | 101 % of control |

* * *

Examples of compounds with documented T/C follow.
Tested on: L1210 leukemia ip in BDF1 mice, survival T/C
Experiment: NCI In Vivo Anticancer Drug Screen. Data for tumor model L1210 Leukemia (intraperitoneal) in B6D2F1 (BDF1) mice
Conditions: endpoint: mean survival time; dose: 400.0 mg/kg/injection; schedule: Q04DX003 (ip); vehicle: Klucel (hydroxypropylcellulose) (HPC); higher = longer survival
Method: The antitumor activity of compounds was measured in mice bearing transplantable tumors. Survival or tumor size were measured and the results are expressed as the measurement made in the treated group (T) divided by the measurement made in the vehicle treated control group (C). The tumor model used in this assay is L1210 Leukemia (intraperitoneal) in B6D2F1 (BDF1) mice
Toxic doses and inconclusive results are not listed. Square brackets hold non-standard residues; d marks the D form. Peptide text beside a SMILES is read from it. * marks the point of attachment. ξ: configuration not given here. Cbz = O=C(OCc1ccccc1)*; ξL = CC(C)CC(N)C(=O)O; OBn = c1ccc(CO*)cc1

| compound | T/C |
| --- | --- |
| CSc1nc2ccccc2s1 | 95 % of control |
| CCC(C)c1ccccc1OC(=O)Nc1ccc(OC)cc1 (configuration not stated) | 100 % of control |
| O=C(CC(c1ccccc1)c1ccccc1)NS(=O)(=O)c1ccccc1 | 97 % of control |
| CN(C)c1ccc2c(c1)C(=NO)c1cc(N(C)C)ccc1-2 | 91 % of control |
| CCOC(=O)c1ccc(C(C)=O)o1 | 94 % of control |
| CN(C)C(=S)SCNC(=S)NCSC(=S)N(C)C | 98 % of control |
| Cc1ccc(NC(=O)N(Cc2ccccc2)Cc2ccccc2)c([N+](=O)[O-])c1 | 99 % of control |
| ClC(c1ccccc1)c1ccc(Br)cc1 (configuration not stated) | 90 % of control |
| COc1ccc(NC(=O)Oc2ccc(-c3ccccc3)cc2Br)cc1 | 92 % of control |
| CC1(C)CCc2c(cc(OCc3ccccc3)c(-c3c(OCc4ccccc4)cc4c(c3O)CCC(C)(C)O4)c2O)O1 | 94 % of control |
| CN1CCC(OC(=O)C2CC(=O)NC(=O)C2)CC1 | 94 % of control |
| Cc1cc(C)c([N+](=O)[O-])c(C)c1C(=O)C(C)C | 94 % of control |
| CC(C)CC(NC(=O)CNC(=O)CNC(=O)OCc1ccccc1)C(=O)OCc1ccccc1 (stereo not drawn) (Cbz-Gly-Gly-[ξL]-OBn) | 100 % of control |
| N#Cc1c(/N=C/c2ccc3c(c2)CCC3)oc(-c2ccccc2)c1-c1ccccc1 | 94 % of control |
| COc1cc2c(ccc3c4cc(OC)c(OC)cc4c[n+](C)c23)cc1O | 120 % of control |
| O=C1CSC(c2ccccc2)N1 (configuration not stated) | 105 % of control |
| O=C(C(=S)N1CCOCC1)c1ccccc1 | 101 % of control |

* * *

Examples of molecules with documented T/C follow.
test system: L1210 leukemia ip in BDF1 mice, survival T/C; assay: NCI In Vivo Anticancer Drug Screen. Data for tumor model L1210 Leukemia (intraperitoneal) in B6D2F1 (BDF1) mice; details: endpoint: mean survival time; dose: 100.0 mg/kg/injection; schedule: Q01DX001 (ip); vehicle: Klucel (hydroxypropylcellulose) (HPC); higher = longer survival
Inconclusive results and toxic doses are left out.

| molecule | system-under-test | T/C |
| --- | --- | --- |
| COC1(OC)C2C=CC1C1C(=O)CC1C(=O)C2 (stereo not given) | L1210 leukemia ip in BDF1 mice, survival T/C | 100 % of control |
| CCOC(=O)c1nc2c(C)nc(N)nc2[nH]c1=O | L1210 leukemia ip in BDF1 mice, survival T/C | 107 % of control |
| O=C(/C=C/C=C\c1ccccc1)/C=C/C=C/c1ccccc1 | L1210 leukemia ip in BDF1 mice, survival T/C | 91 % of control |
| CCCNS(=O)(=O)c1ccc(C(=S)OCC)cc1 | L1210 leukemia ip in BDF1 mice, survival T/C | 98 % of control |
| NC(=O)CNc1ccccc1C(=O)O | L1210 leukemia ip in BDF1 mice, survival T/C | 93 % of control |
| Nc1nc(=S)c2[nH]c(N=Nc3ccc(S(=O)(=O)Nc4nccs4)cc3)nc2[nH]1 | L1210 leukemia ip in BDF1 mice, survival T/C | 123 % of control |
| CCOC(=O)c1nnc(CC)[nH]c1=O | L1210 leukemia ip in BDF1 mice, survival T/C | 106 % of control |
| Cc1ccc(S(=O)(=O)OC2CCC(C(C)(C)C)C(Cl)C2)cc1 (stereo not given) | L1210 leukemia ip in BDF1 mice, survival T/C | 103 % of control |
| CCOC(=O)c1cn2ccc3ccccc3c2n1 | L1210 leukemia ip in BDF1 mice, survival T/C | 103 % of control |
| O=C(COc1ccc(Cl)c(Cl)c1)NCc1ccncc1 | L1210 leukemia ip in BDF1 mice, survival T/C | 93 % of control |
| N#Cc1cccc(NC(=O)COc2cccc(Cl)c2)c1 | L1210 leukemia ip in BDF1 mice, survival T/C | 94 % of control |
| CCC[n+]1nc2ccccc2c(=Nc2ccccc2[N+](=O)[O-])[n-]1 | L1210 leukemia ip in BDF1 mice, survival T/C | 100 % of control |
| c1ccc2cc(C3SCCS3)ccc2c1 | L1210 leukemia ip in BDF1 mice, survival T/C | 95 % of control |
| COc1ccccc1OC1CCCCC1OS(C)(=O)=O (stereo not given) | L1210 leukemia ip in BDF1 mice, survival T/C | 95 % of control |
| C/C(=C/c1c(C)c([N+](=O)[O-])c(C)c(C)c1[N+](=O)[O-])C(=O)O | L1210 leukemia ip in BDF1 mice, survival T/C | 100 % of control |

* * *

System: L1210 leukemia ip in BDF1 mice, survival T/C
Assay: NCI In Vivo Anticancer Drug Screen. Data for tumor model L1210 Leukemia (intraperitoneal) in B6D2F1 (BDF1) mice
Details: endpoint: mean survival time; dose: 100.0 mg/kg/injection; schedule: Q04DX002 (ip); vehicle: Klucel (hydroxypropylcellulose) (HPC); higher = longer survival
Experimental: The antitumor activity of compounds was measured in mice bearing transplantable tumors. Survival or tumor size were measured and the results are expressed as the measurement made in the treated group (T) divided by the measurement made in the vehicle treated control group (C). The tumor model used in this assay is L1210 Leukemia (intraperitoneal) in B6D2F1 (BDF1) mice
Toxic doses and inconclusive results are not listed.
measure-name: T/C

| molecule | obs-value |
| --- | --- |
| CC(NC(=O)NCCCl)c1cccc([N+](=O)[O-])c1 (stereo not drawn) | 94 % of control |
| C=C(C)C(=O)Oc1ccccc1-c1ccccc1 | 100 % of control |
| Cc1ccc(NC(=O)c2c(Br)c(Br)c(Br)c(Br)c2C(=O)O)cc1Cl | 96 % of control |
| CC(=O)CC(=O)C(F)(F)F.CC(=O)CC(=O)C(F)(F)F.CC(=O)CC(=O)C(F)(F)F.CC(=O)CC(=O)C(F)(F)F.[Hf] | 104 % of control |
| CC12CCC(/C(=N/O)C1=O)C2(C)C (stereo not drawn) | 106 % of control |
| CCCCCCCCCCCCCCOc1ccc(S(=O)(=O)/N=C(\N)NC(N)=NCCCCCCCCCC)cc1 | 89 % of control |
| c1ccc2c(CCCCc3nccc4ccccc34)nccc2c1 | 102 % of control |
| O=C(O)C1C2OC(C(Cl)C2Cl)C1C(=O)O (stereo not drawn) | 98 % of control |
